Recorded IC50, one value per entry.
Target: Recombinant human renin (Homo sapiens)
Construct: with trypsin, and isolate the active form (residues 67-406)
Assay: in vitro enzymatic activity of renin inhibitors (fluorescence)
Conditions: fluorogenic peptide substrate

Reference set (6 entries):
- Compound: "Cn1c(=O)c2c(-c3cc(F)ccc3Br)c(CN)c(NC(Cc3ccccc3)c3ccccc3)nc2n(C)c1=O (stereo not shown)"
  Result Value: "1 to 10 µM"
- Compound: "COc1cc(OC)cc(-c2c(CN)c(NCc3cccc(-n4cccc4)c3)nc3c2c(=O)n(C)c(=O)n3C)c1"
  Result Value: "1 to 10 µM"
- Compound: "COc1ccc(Oc2cccc(-c3c(CN)c(NCc4ccc5ccccc5c4)nc4c3c(=O)n(C)c(=O)n4C)c2)cc1"
  Result Value: "1 to 10 µM"
- Compound: "Cn1c(=O)c2c(-c3cccc(OCc4cncs4)c3)c(CN)c(NCc3ccc4ccccc4c3)nc2n(C)c1=O"
  Result Value: "1 to 10 µM"
- Compound: "CCCOc1ccc(OCCC)c(CNc2nc3c(c(-c4ccc(Cl)cc4Cl)c2CN)c(=O)n(C)c(=O)n3C)c1"
  Result Value: "> 100 µM"
- Compound: "COc1cccc(CNc2nc3c(c(-c4cc(F)ccc4OC)c2CN)c(=O)n(C)c(=O)n3C)c1"
  Result Value: "1 to 10 µM"

Okay, next one:
Give IC50 (Recombinant human renin (Homo sapiens)) of the following compound: CCCOc1cc(OCCC)cc(-c2c(CN)c(NCc3ccc4ccccc4c3)nc3c2c(=O)n(C)c(=O)n3C)c1
10 to 100 µM

====

Molecular target: Recombinant human renin (Homo sapiens)
Construct: with trypsin, and isolate the active form (residues 67-406)
Experiment: in vitro enzymatic activity of renin inhibitors (fluorescence)
Details: fluorogenic peptide substrate
Value Kind: IC50

- Smiles Representation: "CCNCc1c(NCc2ccc3ccccc3c2)nc2c(c1-c1cc(OC)cc(OC)c1)c(=O)n(C)c(=O)n2C"
  Value Kind: "IC50"
  Result Value: "10 to 100 µM"

Would you mind telling me what IC50 value was observed for Cn1c(=O)c2c(-c3ccccc3Oc3ccccc3)c(CN)c(NCc3ccc4ccccc4c3)nc2n(C)c1=O ?
1 to 10 µM

IC50 lookup needed for CCCOc1ccc(OCCC)c(-c2c(CN)c(NCc3ccc4ccccc4c3)nc3c2c(=O)n(C)c(=O)n3C)c1 , thanks.
10 to 100 µM

====

Molecular target: Recombinant human renin (Homo sapiens, UniProt P00797)
Construct: with trypsin, and isolate the active form (residues 67-406)
Sequence (P00797 67-406): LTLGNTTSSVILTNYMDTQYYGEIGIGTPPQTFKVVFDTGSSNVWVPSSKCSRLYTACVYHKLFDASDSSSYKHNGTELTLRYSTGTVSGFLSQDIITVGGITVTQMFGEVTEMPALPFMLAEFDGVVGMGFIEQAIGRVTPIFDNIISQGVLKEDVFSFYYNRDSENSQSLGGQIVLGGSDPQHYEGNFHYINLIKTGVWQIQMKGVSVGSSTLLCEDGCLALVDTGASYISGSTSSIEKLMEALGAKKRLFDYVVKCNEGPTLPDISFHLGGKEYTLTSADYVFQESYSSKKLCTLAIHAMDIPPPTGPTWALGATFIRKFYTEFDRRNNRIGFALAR
Assay: in vitro enzymatic activity of renin inhibitors (fluorescence)
Conditions: fluorogenic peptide substrate
Value Kind: IC50

- Smiles Representation: "Cn1c(=O)c2c(-c3ccc(CN)cc3)c(CN)c(N)nc2n(C)c1=O"
  IC50: "10 to 100 µM"

I have this compound here, CC(C)COc1cccc(-c2c(CN)c(N)nc3c2c(=O)n(C)c(=O)n3C)c1 , and I need its recorded IC50.
> 100 µM

Consider the compound COc1cc(OC)cc(-c2c(CN)c(NCc3ccc4ccccc4c3)nc3c2c(=O)n(C)c(=O)n3C)c1 and give its measured IC50.
1 to 10 µM

Look up IC50: COc1ccc(F)cc1-c1c(CN)c(NCCCc2ccccc2)nc2c1c(=O)n(C)c(=O)n2C
1 to 10 µM

For the compound shown here, CCOc1ccc(OCC)c(-c2c(CN)c(NCc3ccc4ccccc4c3)nc3c2c(=O)n(C)c(=O)n3C)c1 , give the reported IC50.
1 to 10 µM

Return reported IC50; argument: CC(C)COc1ccc(Cl)cc1-c1c(CN)c(NCc2ccc3ccccc3c2)nc2c1c(=O)n(C)c(=O)n2C
1 to 10 µM

Given the compound Cn1c(=O)c2c(-c3cccc(OCc4cnc(Cl)s4)c3)c(CN)c(NCc3ccc4ccccc4c3)nc2n(C)c1=O , what is its reported IC50?
1 to 10 µM

Using the record for COc1ccc(-c2c(CN)c(NCc3ccc4ccccc4c3)nc3c2c(=O)n(C)c(=O)n3C)cc1OC , report its IC50.
1 to 10 µM

Taken from patent US8133898B2.
